Data origin: ChEMBL document CHEMBL4483862

Each record here notes measured IC50.
- Tested on: Plasmodium berghei
- TEST_NAME: Luciferase/luciferin-expressing antifolate-resistant parasites were used to infect a culture of HepG2 cells that were pre-incubated with compounds. Infected hepatocytes emit light due to the luciferase reaction. Assay results are presented as the percent inhibition of light emission compared to control. […]
- Assay type: functional
- CONDITION_SET: sporozoite, read-out: LUCIFERASE INFECTION ASSAY - IC50

Field: example entries. Status: answers known.
{"MOLECULE": "Cc1ccc2nc(NC(=O)c3ccc(Cl)cc3)c(C(=O)NCC(C)C)n2c1", "IC50": "2.76 µM"}
{"MOLECULE": "CCN(CC)c1ccc(NC(=O)c2ccc(C)cc2)c(N(CC)CC)n1", "IC50": "> 9.31 µM"}
{"MOLECULE": "CC(C)(C)S(=O)(=O)/C(C#N)=C/Nc1ccc(OC(F)(F)F)cc1", "IC50": "> 9.47 µM"}
{"MOLECULE": "CCCN1CCN(c2c3ccc(Cl)cc3nc3ccc(OC)cc23)CC1", "IC50": "> 10 µM"}
{"MOLECULE": "CCn1cc(CN(C)C(=O)c2sc3cccc(Cl)c3c2Cl)c(C)n1", "IC50": "> 8.63 µM"}
{"MOLECULE": "Nc1nnc(SCC(=O)N(Cc2ccccc2)c2nc(-c3ccc(Cl)cc3)cs2)[nH]1", "IC50": "> 10 µM"}

Consider the molecule shown here: `Cn1c(S)nnc1-c1ccc(C(C)(C)C)cc1` What is its recorded IC50?
> 13.3 µM

Further, for `Cc1ccc(Sc2ncnc3sccc23)cc1` ?
> 12.8 µM

Further, for `COc1cc(C(=O)NCCN(C(C)C)C(C)C)cc(OC)c1C` ?
> 10 µM
